Data provenance is PubChem BioAssay (NCATS).

Experiment: BET inhibitor-based combinations targeting novel dependencies in MECOM-rearranged (r) AML: UCSD-AML1 cell line (AID 2202235); note: nearly all actives have a fitted effect of over 40% in size
Conditions: UCSD-AML1 AML cells viability, CellTiter-Glo, 48 h; series mostly up to 46 µM
Inconclusive results are not listed. Active and inactive are the calls of the source. Calls come from the whole dose curve; as a rule, active = well fitted inhibition curve with a large enough effect; inconclusive = small, poorly fitted or top-dose-only effect; inactive = no such curve, though single readings can be large or run the other way.
Permitted responses: active, inactive

Example cases with answers are listed next.
- COMPOUND: "COCCNCc1ccc(-c2cc3nccc(Oc4ccc(NC(=S)NC(=O)Cc5ccc(F)cc5)cc4F)c3s2)nc1"
  CLASSIFICATION: "active"
- COMPOUND: "CC1(C)CCC2(CC1)N[C@@H](C(=O)N[C@@H]1CC[C@@H](C(N)=O)OC1)[C@H](c1ccnc(Cl)c1F)[C@]21C(=O)Nc2cc(Cl)ccc21"
  CLASSIFICATION: "active"
- COMPOUND: "C[C@H](Nc1nc(N[C@H](C)C(F)(F)F)nc(-c2cccc(Cl)n2)n1)C(F)(F)F"
  CLASSIFICATION: "inactive"
- COMPOUND: "CC1c2cccc(O)c2C(O)=C2C(=O)C3(O)C(O)=C(C(N)=O)C(=O)C(N(C)C)C3C(O)C21 (centres undefined)"
  CLASSIFICATION: "inactive"
- COMPOUND: "CS(=O)(=O)Nc1cc2occ(NC=O)c(=O)c2cc1Oc1ccccc1"
  CLASSIFICATION: "inactive"
- COMPOUND: "CC1(N)CCN(c2cnc(-c3cccc(Cl)c3Cl)c(N)n2)CC1"
  CLASSIFICATION: "inactive"
- COMPOUND: "CCCCCCCOc1ccc(CCC(N)(CO)CO)cc1C(F)(F)F"
  CLASSIFICATION: "active"
- COMPOUND: "c1ccc2c(Cc3c[nH]c4ccccc34)c[nH]c2c1"
  CLASSIFICATION: "inactive"

Kindly review the next compound as well.
// query Assay result, entry `CN[C@@H]1C[C@H]2O[C@@](C)([C@@H]1OC)n1c3ccccc3c3c4c(c5c6ccccc6n2c5c31)C(=O)N[C@H]4O` — outcome?
// result active
